Target: T1, mature recombinant mouse GDF-15 with Flag and His tags (mouse, UniProt Q9Z0J7 189-303)
T1 construct: also called Flag tagged mouse GDF-15; not shown: FLAG and poly-His tags immediately C-terminal to the furin cleavage site (N-terminal on the mature protein)
T1 sequence: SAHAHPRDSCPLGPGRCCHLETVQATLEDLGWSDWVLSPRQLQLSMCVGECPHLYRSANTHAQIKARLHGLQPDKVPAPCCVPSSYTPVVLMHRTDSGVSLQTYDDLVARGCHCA
Assay: SPR Biacore 8K, 25 C, biotinylated GDF-15 on streptavidin C1 chip, Fab as analyte
Measured kon by item
REPORTED METRIC: kon (M⁻¹ s⁻¹)

[
  {
    "BINDER": "AB1170244 Fab (Fab, V domains shown, Fab of the humanized antibody, expressed as in Spooner et al. 2015) VH: EVQLVESGGGLVKPGGSLRLSCAASGFTFSSYAMSWVRQAPGKGLEWVAYISSGGDNIYYADTVKGRFTISRDNSKNTLYLQMNSLKTEDTAVYYCTRALVENAYFDYWGQGTTVTVSS VL: DSVLTQSPDSLAVSLGERATINCRASKSVSTSTYSYMHWYQQKPGQPPKLLIKYASYLESGVPDRFSGSGSGTDFTLKISRVEAEDVGVYYCQHSREFPWTFGGGTKVEIK",
    "NUMERIC RESULT": 591000
  },
  {
    "BINDER": "AB1170245 Fab (Fab, V domains shown, Fab of the humanized antibody, expressed as in Spooner et al. 2015) VH: EVQLVESGGGLVKPGGSLRLSCAASGFTFSSYAMSWVRQAPGKGLEWVAYISSGGDYIYYADTVKGRFTISRDNSKNTLYLQMNSLKTEDTAVYYCTRALVDNAYFDYWGQGTTVTVSS VL: DIVLTQSPDSLAVSLGERATINCRASKSVSTSSYSYMHWYQQKPGQPPKLLIKYASYLEFGVPSRFSGSGSGTDFTLTISSLQPEDVATYYCQHSREFPWTFGGGTKVEIK",
    "NUMERIC RESULT": 643000
  },
  {
    "BINDER": "AB1170243 Fab (Fab, V domains shown, Fab of the humanized antibody, expressed as in Spooner et al. 2015) VH: QVQLVQSGSELKKPGASVKVSCKASGYTFTDYNMDWIRQSPGKGLEWIGDINPNNGGTFYNQKFKDRATLTVDKSTSTAYMELRSLRSDDTAVYYCAREEKLYFGLMDYWGQGTTVTVSS VL: DIQMTQSPSSLSASVGDRVTITCRASENIYSYLAWYQQKPGKAPKLLVYNAKTLAEGVPSRFSGSGSGIDFTLTISSLQPEDFATYYCQHQYGSPPTFGQGTKLEIK",
    "NUMERIC RESULT": "3.9e+06"
  },
  {
    "BINDER": "AB1520085 Fab (Fab, V domains shown, Fab of the anti-mouse GDF-15 mouse IgG1, expressed as in Spooner et al. 2015) VH: QVQLQQPGAELVMPGASVKMSCKASGYTFTDYWMHWVKQRPGQGLEWIGVIDTSESYTSYNQKFKGKATLTVDESSSTAYMQLSSLTSEDSAVYFCARGGTTVVLDYWGQGTTLTVSS VL: DIVMTQSQKFMSTSVGDRVSVTCKASQNVGTAVAWYQKKPGQSPKALIYSASTRYTGVPDRFTGSGSGTDFTLTISNVQSEDLAEYFCQQYSSSPWTFGGGTKLELK",
    "NUMERIC RESULT": "1.75e+06"
  },
  {
    "BINDER": "AB1170241 Fab (Fab, V domains shown, Fab of the humanized antibody, expressed as in Spooner et al. 2015) VH: QVQLVQSGSELKKPGASVKVSCKASGYTFTDYNMDWIRQSPGKGLEWIGDINPNQGGTFYNQKFKDRATLTVDKSTSTAYMELRSLRSDDTAVYYCAREEKLYFGLMDYWGQGTTVTVSS VL: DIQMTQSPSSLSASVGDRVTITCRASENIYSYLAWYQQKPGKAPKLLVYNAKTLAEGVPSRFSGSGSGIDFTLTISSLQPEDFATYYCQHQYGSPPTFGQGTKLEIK",
    "NUMERIC RESULT": "3.07e+06"
  },
  {
    "BINDER": "AB1170242 Fab (Fab, V domains shown, Fab of the humanized antibody, expressed as in Spooner et al. 2015) VH: QVQLQESGPGLLKPSQTLSLTCTVSGFSLSTYGMGVGWIRQPAGKGLEWLANIWWNDDKYYNSALKSRLTISKDTSKNQVSLKLSSVTAADTAVYYCAQEVYGWFAYWGQGTLVTVSS VL: DIQMTQSPSTLSASVGDRVTITCKASQNVGTNVAWYQQKPGQPPKALIYSASYRYSGVPDRFSGSGSGTDFTLTISSLQAEDVAVYYCQQYNSYPLTFGQGTKLEIK",
    "NUMERIC RESULT": 903000
  },
  {
    "BINDER": "AB1170249 Fab (Fab, V domains shown, Fab of the humanized antibody, expressed as in Spooner et al. 2015) VH: QVQLQESGPGLLKPSQTLSLTCTVSGFSLSTYGMGVGWIRQPLGKGLEWLANIWWNDDKYYNSALKSRLTISKDTSKNQVSLKLSSVTAADTAVYYCAQMAYSWFAYWGQGTLVTVSS VL: DIQMTQSPSFLSASVGDRVTITCKASQNMDTNVAWYQQKPGQPPKALIYSASYRYSGVPDRFSGSGSGTDFTLTISSLQAEDVAVYYCQQYNSYPFTFGQGTKLEIK",
    "NUMERIC RESULT": 804000
  }
]

Hey, just so you know, these numbers are from patent US20220281965A1.
